Molecular target: recombinant Plk1 protein (Homo sapiens, UniProt P53350)
Construct: histidine tag (N)
Sequence (P53350 whole entry): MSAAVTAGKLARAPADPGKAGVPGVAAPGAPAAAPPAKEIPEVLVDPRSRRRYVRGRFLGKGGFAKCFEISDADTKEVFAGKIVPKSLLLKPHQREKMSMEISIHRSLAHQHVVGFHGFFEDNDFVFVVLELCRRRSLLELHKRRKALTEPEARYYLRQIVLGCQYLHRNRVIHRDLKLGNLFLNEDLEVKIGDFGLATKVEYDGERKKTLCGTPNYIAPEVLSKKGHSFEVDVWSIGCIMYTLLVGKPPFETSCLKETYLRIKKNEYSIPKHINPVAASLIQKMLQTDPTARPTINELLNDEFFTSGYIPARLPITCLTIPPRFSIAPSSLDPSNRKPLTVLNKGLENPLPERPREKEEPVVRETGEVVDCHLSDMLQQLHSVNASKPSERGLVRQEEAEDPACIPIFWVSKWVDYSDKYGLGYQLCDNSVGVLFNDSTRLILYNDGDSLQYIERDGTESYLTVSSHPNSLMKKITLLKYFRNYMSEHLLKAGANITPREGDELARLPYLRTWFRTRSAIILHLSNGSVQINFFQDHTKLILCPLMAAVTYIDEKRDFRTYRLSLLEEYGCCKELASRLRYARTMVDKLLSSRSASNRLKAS
Assay: Plk1 kinase activity inhibition assay (33P-ATP, alpha casein substrate, flash plates)
Conditions: enzymatic assay, 100 nM Li-ATP, 80 minutes at 30° C.
VALUE_KIND: IC50

[
  {
    "COMPOUND": "CCC(Oc1cc(-n2cnc3cnc(CO)cc32)sc1C(N)=O)c1ccccc1Cl (stereo not shown)",
    "IC50": "< 10 nM"
  },
  {
    "COMPOUND": "CCOc1ccc(OCC)c(COc2cc(-n3cnc4cnc(CN5CCN(C)CC5)cc43)sc2C(N)=O)c1",
    "IC50": "100 to 1000 nM"
  },
  {
    "COMPOUND": "C[C@@H](Oc1cc(-n2cnc3cnc(CNCCN4CCN(C)CC4)cc32)sc1C(N)=O)c1ccccc1C(F)(F)F",
    "IC50": "10 to 100 nM"
  },
  {
    "COMPOUND": "C[C@@H](Oc1cc(-n2cnc3cnc(CN4CCN(c5ccncc5)CC4)cc32)sc1C(N)=O)c1ccccc1C(F)(F)F",
    "IC50": "10 to 100 nM"
  },
  {
    "COMPOUND": "C[C@@H](Oc1cc(-n2cnc3cnc(CN4CCC(N5CCN(C)CC5)CC4)cc32)sc1C(N)=O)c1ccccc1C(F)(F)F",
    "IC50": "10 to 100 nM"
  },
  {
    "COMPOUND": "C[C@@H](Oc1cc(-n2cnc3cnc(CN4CCN(CC(=O)N5CCCC5)CC4)cc32)sc1C(N)=O)c1ccccc1C(F)(F)F",
    "IC50": "10 to 100 nM"
  }
]

Proceeding to the next compound to report its IC50.
Request: Kindly state the measured IC50 obtained for C[C@@H](Oc1cc(-n2cnc3cnc(CN4CCOCC4)cc32)sc1C(N)=O)c1ccccc1C(F)(F)F with recombinant Plk1 protein (Homo sapiens, UniProt P53350).
Result: 10 to 100 nM

###

Target: recombinant Plk1 protein (Homo sapiens, UniProt P53350)
Construct: histidine tag (N)
Assay: Plk1 kinase activity inhibition assay (33P-ATP, alpha casein substrate, flash plates)
Settings: enzymatic assay, 100 nM Li-ATP, 80 minutes at 30° C.
pIC50: −log10 of the molar value.
VALUE_KIND: pIC50

Sample answers from the record:
[
  {
    "COMPOUND": "COc1cc2c(cn1)ncn2-c1cc(OCc2ccccc2C(F)(F)F)c(C(=O)O)s1 [Example 18]",
    "STUDY_SYSTEM": "recombinant Plk1 protein (Homo sapiens, UniProt P53350)",
    "pIC50": "7.00 to 8.00"
  },
  {
    "COMPOUND": "COc1cc2ncn(-c3cc(OCc4ccccc4C(F)(F)F)c(C(N)=O)s3)c2cn1 [Example 17]",
    "STUDY_SYSTEM": "recombinant Plk1 protein (Homo sapiens, UniProt P53350)",
    "pIC50": "7.00 to 8.00"
  },
  {
    "COMPOUND": "C[C@@H](Oc1cc(-n2cnc3cc(CN4CCN(C)CC4)ncc32)sc1C(N)=O)c1ccccc1C(F)(F)F [Example 49]",
    "STUDY_SYSTEM": "recombinant Plk1 protein (Homo sapiens, UniProt P53350)",
    "pIC50": "5.00 to 6.00"
  }
]

For each of the items listed, what is its pIC50?
1. NC(=O)c1sc(-n2cnc3cnc(CNC4CC4)cc32)cc1OCc1ccccc1C(F)(F)F [Example 7]
2. CN1CCN(Cc2cc3c(cn2)ncn3-c2cc(OCc3ccccc3C(F)(F)F)c(C(N)=O)s2)CC1 [Example 8]
3. C[C@@H](Oc1cc(-n2cnc3cnc(CN4CCN(c5ccccc5)CC4)cc32)sc1C(N)=O)c1ccccc1C(F)(F)F [Example 59]
4. C[C@@H](Oc1cc(-n2cnc3cnc(CN4CCN(S(=O)(=O)c5ccccc5)CC4)cc32)sc1C(N)=O)c1ccccc1C(F)(F)F [Example 58]
5. C[C@@H](Oc1cc(-n2cnc3cnc(CO)cc32)sc1C(N)=O)c1ccccc1Br [Example 52]
6. CCc1ccccc1COc1cc(-n2cnc3cnc(CN4CCN(CC)CC4)cc32)sc1C(N)=O [Example 154]

Result:
7.00 to 8.00
> 8.00
7.00 to 8.00
7.00 to 8.00
> 8.00
7.00 to 8.00

Parameters: items (list). Returns: pIC50 for each item.
1. CC(Oc1cc(-n2cnc3cnc(CN4CCN(C)CC4)cc32)sc1C(N)=O)c1ccccc1OC(F)F (stereo not shown) [Example 99]
2. C[C@@H](Oc1cc(-n2cnc3cnc(CO)cc32)sc1C(N)=O)c1ccccc1Cl [Example 54]
3. COc1cc2ncn(-c3cc(OCc4ccccc4C(F)(F)F)c(C(N)=O)s3)c2nc1OC [Example 21B]
4. NC(=O)c1sc(-n2cnc3ncccc32)cc1OCc1ccccc1C(F)(F)F [Example 20]

Result:
1: > 8.00; 2: > 8.00; 3: 7.00 to 8.00; 4: 6.00 to 7.00

Take each entry in turn and give its pIC50.
1. C[C@@H](Oc1cc(-n2cnc3cnc(CN4CCN(CCO)CC4)cc32)sc1C(N)=O)c1ccccc1C(F)(F)F [Example 61]
2. C[C@@H](Oc1cc(-n2cnc3cnc(CN4CCN(c5cnccn5)CC4)cc32)sc1C(N)=O)c1ccccc1C(F)(F)F [Example 84]
3. NC(=O)c1sc(-n2cnc3cnc(Cl)cc32)cc1OCc1ccccc1C(F)(F)F [Example 1]

Result:
1. > 8.00
2. 7.00 to 8.00
3. 7.00 to 8.00
